- ASSAY_SYSTEM: Human Factor D (Homo sapiens (Human), UniProt P00746)
- Sequence (P00746 26-253): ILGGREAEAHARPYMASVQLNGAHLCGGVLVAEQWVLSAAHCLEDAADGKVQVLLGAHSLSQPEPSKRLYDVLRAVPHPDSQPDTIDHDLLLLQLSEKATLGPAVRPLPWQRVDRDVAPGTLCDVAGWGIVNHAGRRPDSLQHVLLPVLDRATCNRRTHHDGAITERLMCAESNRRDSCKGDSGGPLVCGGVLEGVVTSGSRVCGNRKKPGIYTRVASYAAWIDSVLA
- MEASUREMENT_PROTOCOL: Human Factor D Assay
- Type: biochemical
- STUDY_CONDITIONS: Table 6; Factor D 80 nM, substrate Z-L-Lys-SBz; read-out: IC50
MEASURE: IC50

Below: 2 compounds and their reported IC50.
CC(=O)c1nn(CC(=O)N2[C@H]3C[C@@]3(CN3CC4(CCC4)C3)C[C@H]2C(=O)Nc2nc(Br)ccc2C)c2ccc(-c3cnc(C)nc3)cc12 = < 1000 nM
CC(=O)c1nn(CC(=O)N2[C@H](C(=O)Nc3nc(Br)ccc3C)C[C@@]3(C)C[C@@H]23)c2c(C)cc(-c3cnc(C)[n+]([O-])c3)cc12 = < 1000 nM

I have 7 compounds here; please give me IC50 for each one.
1. CC(=O)c1nn(CC(=O)N2[C@H](C(=O)Nc3nc(Br)ccc3C)C[C@@]3(C)C[C@@H]23)c2ccc(-c3cnc(CC(=O)N(C)C)nc3)cc12
2. Cc1ncc(-c2ccc3c(c2)c(C(C)O)nn3CC(=O)N2C[C@H]3C[C@H]3[C@H]2C(=O)Nc2nc(Br)ccc2C)cn1 (stereo partly drawn)
3. CC(=O)c1nn(CC(=O)N2[C@H](C(=O)Nc3nc(Br)ccc3C)C[C@@]3(CO)C[C@@H]23)c2ccc(-c3cnc(C)nc3)cc12
4. CC(=O)c1nn(CC(=O)N2[C@H](C(=O)Nc3nc(Br)ccc3CN3CCOCC3)C[C@@]3(C)C[C@@H]23)c2ccc(-c3cnc(C)nc3)cc12
5. CC(=O)c1nn(CC(=O)N2[C@H](C(=O)Nc3nc(Br)ccc3C)C[C@@]3(C#N)C[C@@H]23)c2c(C)cc(-c3cnc(C)nc3)cc12
6. CC(=O)c1nn(CC(=O)N2[C@H]3C[C@@]3(CN3CCN(C(C)=O)CC3)C[C@H]2C(=O)Nc2nc(Br)ccc2C)c2ccc(-c3cnc(C)nc3)cc12
7. C=CCCS(=O)(=O)N(C)C[C@@]12C[C@@H](C(=O)Nc3nc(Br)ccc3C=C)N(C(=O)Cn3nc(C(C)=O)c4cc(-c5cnc(C)nc5)ccc43)[C@@H]1C2

Result string:
< 1000 nM
1000 to 10000 nM
< 1000 nM
< 1000 nM
> 10000 nM
1000 to 10000 nM
< 1000 nM

Give IC50 for all compounds that follow.
1. CC(=O)c1nn(CC(=O)N2[C@H](C(=O)Nc3nc(Br)ccc3C)C[C@@]3(CN4CCN(C(C)=O)CC4)C[C@@H]23)c2ccc(-c3cnc(C)nc3)cc12
2. C=CCOCc1ccc(Br)nc1NC(=O)[C@@H]1C[C@@]2(C=C)C[C@H]2N1C(=O)Cn1nc(C(C)=O)c2cc(-c3cnc(C)nc3)ccc21
3. CC(=O)c1nn(CC(=O)N2C[C@H]3C[C@H]3[C@H]2C(=O)Nc2nc(Br)ccc2C)c2ncc(-c3cnc(C)nc3)cc12

Result string:
1: < 1000 nM; 2: < 1000 nM; 3: < 1000 nM

* * *

Please respond with reported pIC50 for every item in the list.
- ASSAY_SYSTEM: Human Factor D (Homo sapiens (Human), UniProt P00746)
- MEASUREMENT_PROTOCOL: Human Factor D Assay
- Format: biochemical
- STUDY_CONDITIONS: Table 6; Factor D 80 nM, substrate Z-L-Lys-SBz; read-out: IC50
pIC50: −log10 of the molar value.

Answered examples (2):
CC(=O)c1nn(CC(=O)N2[C@H]3C[C@@]3(C)C[C@H]2C(=O)Nc2nc(Br)ccc2C)c2c(C(F)(F)F)cc(-c3cnc(C)nc3)cc12 = < 5.00
CC(=O)c1nn(CC(=O)N2C[C@H](F)C[C@H]2C(=O)Nc2cccc(O)n2)c2ccc(-c3cnc(C)nc3)cc12 = 5.00 to 6.00

compound "CC(=O)c1nn(CC(=O)N2C[C@H](F)C[C@H]2C(=O)Nc2nc(Br)ccc2CC(=O)N(C)C)c2ccc(-c3cnc(C)nc3)cc12" , pIC50 observed: > 6.00
